This collection of values is drawn from PubChem BioAssay (NCI).

# Test system: RPMI-8226 leukemia
# TEST METHOD NOTES: NCI-60 one-dose screen, 48 h (100 = growth as untreated, 0 = no growth, -100 = all killed)
# TEST CONDITIONS: 10 µM
This is part of a sample that, as a whole, favours compounds with a hit. Of some 83,000 tested, about 20% had one in any assay. Activity calls are given as the source filed them. The calls were made as follows: active = growth percent below 10; inactive = the rest.
Provide the recorded growth for the entries that follow.

For reference, reported growth for Cc1ccc(S(=O)(=O)N2CCc3ccc(O)c4c3C2Cc2ccc3c(c2-4)OCO3)cc1 (stereo not given) stands at 27.4% (inactive)

For reference, reported growth for "CCCCc1ccc(NC(=O)C(F)(F)F)cc1" stands at 91.4% (inactive)

For reference, reported growth for "FC(F)(F)c1cc(CNc2nc(Cl)ncc2Br)cc(C(F)(F)F)c1" stands at 70.9% (inactive)

For reference, reported growth for "Cc1ccc(C)c2c1sc1nc3nc4sc5ccccc5n4c(=N)c3c(=O)n12" stands at 89.4% (inactive)

For reference, reported growth for C[C@@H](Oc1cc(-c2cnn(C3CC4(CCCNC4)C3)c2)cnc1N)c1c(Cl)ccc(F)c1Cl (stereo not given in full) stands at -0.0926% (active)

For reference, reported growth for "Nc1cc(Br)c(-c2nnc(CCC(=O)c3nc4ccccc4[nH]3)o2)c(Br)c1" stands at 79.6% (inactive)

For reference, reported growth for "CN1CCN(c2ccc3nc(-c4ccc5nc(-c6ccc(C(F)(F)F)cc6)[nH]c5c4)[nH]c3c2)CC1" stands at -9.04% (active)

For reference, reported growth for "COc1ccc(C(=O)COc2cccc(/C=C3\CSc4ccc(C)cc4C3=O)c2)cc1" stands at -23.5% (active)

For reference, reported growth for C=C(C)COC(=O)c1ccccc1C(=O)OCC1(C)CO1 (stereo not given) stands at 110% (inactive)

For reference, reported growth for COC(=O)C1C2CC3c4[nH]c5cc(OC)ccc5c4CCN3CC2CC(OC2CCCCO2)C1OC (stereo not given) stands at 87.5% (inactive)

For reference, reported growth for "Clc1ccc2c(N3CCN(c4ccnc(NC5CCCCC5)n4)CC3)ccnc2c1" stands at 2.01% (active)

For reference, reported growth for "CN1CCN(CCCn2c3c(sc4ncccc43)c(=O)n3nnc(-c4ccccc4)c23)CC1" stands at 72.5% (inactive)

For reference, reported growth for "CN1CCC(OC2c3ccccc3CCc3ccccc32)CC1" stands at 88% (inactive)

For reference, reported growth for CC[Si](CC)(CC)OC1[C@@H](O[Si](CC)(CC)CC)[C@@H](CNC(=O)NC)O[C@H]1n1cnc2c(NC(=O)Nc3ccccc3)ncnc21 (stereo not given in full) stands at 3.35% (active)

For reference, reported growth for "C=CC(=O)N1CC2(CC(n3nc(-c4ccc(Oc5ccccc5)cc4)c4c(N)ncnc43)C2)C1" stands at 41% (inactive)

For reference, reported growth for COc1ccc(/C=N/NC(=O)c2cnn3c2NC(c2ccccc2)C3)cc1OC1CCCC1 (stereo not given) stands at 79% (inactive)

For reference, reported growth for "Cn1cc(C(=O)NCCC(=N)N)cc1NC(=O)CN=C(N)N" stands at 110% (inactive)

For reference, reported growth for "COc1ccc(Cn2c(Br)c3c(c2-c2cc(OC)c(OC)c(OC)c2)CCc2sc(N)nc2-3)cc1" stands at 21.2% (inactive)

For reference, reported growth for "O=c1[nH]c(=S)[nH]c(=O)n1Cc1cccc2ccccc12" stands at 106% (inactive)

For reference, reported growth for "CN1CCn2c(c(Sc3ccc(C(=O)NO)cc3)c3ccccc32)C1=O" stands at -19.9% (active)
